pKi: −log10 of the molar value.
As a worked illustration, we turn to pKi data collected for butyrylcholinesterase (BuChE) enzyme (Homo sapiens (Human)).
readout-name: pKi

• Cc1c(N(Cc2ccc(I)cc2)Cc2ccc(I)cc2)c(=O)n(-c2ccccc2)n1C = 5.25
• Cc1c(N(Cc2ccccc2Br)Cc2ccccc2Br)c(=O)n(-c2ccccc2)n1C = 5.62

----------
assay-system: butyrylcholinesterase (BuChE) enzyme (Homo sapiens (Human), UniProt P06276)
Sequence (P06276 29-602): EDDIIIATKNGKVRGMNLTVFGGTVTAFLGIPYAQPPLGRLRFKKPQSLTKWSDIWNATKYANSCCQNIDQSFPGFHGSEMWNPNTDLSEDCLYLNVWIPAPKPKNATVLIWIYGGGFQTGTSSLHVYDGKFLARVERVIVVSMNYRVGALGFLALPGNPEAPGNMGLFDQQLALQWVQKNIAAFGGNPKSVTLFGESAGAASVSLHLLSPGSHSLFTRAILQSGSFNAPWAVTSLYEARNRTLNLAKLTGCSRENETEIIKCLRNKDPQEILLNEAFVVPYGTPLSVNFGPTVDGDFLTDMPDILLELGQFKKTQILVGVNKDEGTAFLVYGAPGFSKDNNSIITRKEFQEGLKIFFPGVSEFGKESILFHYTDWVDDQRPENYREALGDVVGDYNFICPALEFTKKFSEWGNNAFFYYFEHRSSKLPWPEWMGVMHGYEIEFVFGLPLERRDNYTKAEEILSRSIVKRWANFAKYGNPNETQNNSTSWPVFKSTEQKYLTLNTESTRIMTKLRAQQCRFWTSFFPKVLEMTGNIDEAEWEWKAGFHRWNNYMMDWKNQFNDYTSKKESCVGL
procedure-summary: In-vitro butyryl cholinesterase inhibitory activity (DTNB, 96-well)
Type: biochemical
test-conditions: compared with standard galantamine hydrobromide
readout-name: Butyrylcholinesterase inhibition, rating in words

* Cc1c(N)c(=O)n(-c2ccccc2)n1C [4-aminoantipyrine, 4-Aminoantipyrine] | moderate inhibitor
* Cc1c(N(Cc2cccc(I)c2)Cc2cccc(I)c2)c(=O)n(-c2ccccc2)n1C | potent inhibitors
* Cc1c(N(Cc2ccccc2Cl)Cc2ccccc2Cl)c(=O)n(-c2ccccc2)n1C | potent inhibitors
* Cc1c(N(Cc2cccc(Br)c2)Cc2cccc(Br)c2)c(=O)n(-c2ccccc2)n1C | potent inhibitors
* Cc1c(N(Cc2ccc(Br)cc2)Cc2ccc(Br)cc2)c(=O)n(-c2ccccc2)n1C | moderate inhibitor
* Cc1c(N(Cc2ccc(I)cc2)Cc2ccc(I)cc2)c(=O)n(-c2ccccc2)n1C | potent inhibitors
* Cc1c(N(Cc2ccccc2Br)Cc2ccccc2Br)c(=O)n(-c2ccccc2)n1C | potent inhibitors
* Cc1c(N(Cc2cccc(Cl)c2)Cc2cccc(Cl)c2)c(=O)n(-c2ccccc2)n1C | potent inhibitors

----------
assay-system: butyrylcholinesterase (BuChE) enzyme (Homo sapiens (Human))
Reported values of log10(IC50) for individual entries
readout-name: log10(IC50) (log10 of the value in nM)

• Cc1c(N(Cc2cccc(Br)c2)Cc2cccc(Br)c2)c(=O)n(-c2ccccc2)n1C = 1.42
• Cc1c(N(Cc2ccccc2Br)Cc2ccccc2Br)c(=O)n(-c2ccccc2)n1C = 2.85
• Cc1c(N(Cc2cccc(I)c2)Cc2cccc(I)c2)c(=O)n(-c2ccccc2)n1C = 2.60
• Cc1c(N(Cc2cccc(Cl)c2)Cc2cccc(Cl)c2)c(=O)n(-c2ccccc2)n1C = 2.00
• Cc1c(N(Cc2ccc(Br)cc2)Cc2ccc(Br)cc2)c(=O)n(-c2ccccc2)n1C = 4.77
• Cc1c(N)c(=O)n(-c2ccccc2)n1C [4-aminoantipyrine, 4-Aminoantipyrine] = 4.84
• Cc1c(N(Cc2ccc(I)cc2)Cc2ccc(I)cc2)c(=O)n(-c2ccccc2)n1C = 3.39
• Cc1c(N(Cc2ccccc2Cl)Cc2ccccc2Cl)c(=O)n(-c2ccccc2)n1C = 2.70
